Tested on: human monoclonal antibody CRJB
Type: binding
Measurement Type: Binding of CRJB (10 μg/ml) to looped/cyclic peptide (PEPSCAN-ELISA)
One number for each entry.

// each sequence listed below needs its Binding of CRJB (10 μg/ml) to looped/cyclic peptide (PEPSCAN-ELISA)
1. GLRLMDGTWVAMQTS
2. QHMELLESSVIPLVH
3. PDQLVNLHDFRSDEI
4. QLVNLHDFRSDEIEH
5. FVDERGLYKSLKGAC
6. VIPLVHPLADPSTVF

Response:
1: 99; 2: 97; 3: 73; 4: 44; 5: 79; 6: 92

----------
Test system: human monoclonal antibody CR57
Assay type: binding
Measurement Type: Binding of CR57 (10 μg/ml) to looped/cyclic peptide (PEPSCAN-ELISA)
One number for each entry.

Batch lookup, Binding of CR57 (10 μg/ml) to looped/cyclic peptide (PEPSCAN-ELISA) per entry.
1. RTWNEILPSKGCLRV
2. RASKGSETCGFVDER
3. SFRRLSHLRKLVPGF
4. KWCPPDQLVNLHDFR

Response:
1: 107; 2: 105; 3: 143; 4: 118
